The values you see were collected from ChEMBL document CHEMBL6134884.

- test-system: UniProtKB O75469
- Sequence (O75469 whole entry): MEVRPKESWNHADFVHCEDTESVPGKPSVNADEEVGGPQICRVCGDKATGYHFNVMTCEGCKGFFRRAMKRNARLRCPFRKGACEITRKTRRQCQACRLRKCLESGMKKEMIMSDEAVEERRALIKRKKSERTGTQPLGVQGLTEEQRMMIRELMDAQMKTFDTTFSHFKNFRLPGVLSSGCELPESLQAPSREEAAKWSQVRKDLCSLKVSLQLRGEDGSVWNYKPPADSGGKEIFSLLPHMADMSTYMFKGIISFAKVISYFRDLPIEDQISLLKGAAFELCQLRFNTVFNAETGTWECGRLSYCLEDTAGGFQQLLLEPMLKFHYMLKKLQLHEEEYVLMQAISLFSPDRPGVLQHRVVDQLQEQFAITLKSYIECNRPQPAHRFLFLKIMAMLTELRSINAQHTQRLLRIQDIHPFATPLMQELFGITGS
- procedure-details: Activation of human PXR at 5 uM relative to control
- Assay type: toxicity
- test-conditions: read-out: Activity
readout-name: activity at 5 µM (%)

{"columns": ["compound", "readout-name", "uom", "experimental-value"],
 "data": [
  ["CCN(C(=O)c1nc(C(=O)NCC(C)(C)O)sc1-c1ccc(C(O)(C(F)(F)F)C(F)(F)F)c(Cl)c1Cl)C1CCC1", "activity at 5 µM", "%", 21],
  ["CCN(CC)C(=O)c1nc(C(=O)N2C[C@H](O)C[C@H](O)C2)sc1-c1ccc(C(O)(C(F)(F)F)C(F)(F)F)c(Cl)c1Cl", "activity at 5 µM", "%", 4.7],
  ["C[C@H]1CC(F)(F)CN1C(=O)c1nc(C(=O)NCC(C)(C)O)sc1-c1ccc(C(O)(C(F)(F)F)C(F)(F)F)c(Cl)c1Cl", "activity at 5 µM", "%", 50],
  ["CC(C)(O)CNC(=O)c1nc(C(=O)N2CCC(F)CC2)c(-c2ccc(C(O)(C(F)(F)F)C(F)(F)F)c(Cl)c2Cl)s1", "activity at 5 µM", "%", 14],
  ["C[C@H]1CCCN1C(=O)c1nc(C(=O)NCC(C)(C)O)sc1-c1ccc(C(O)(C(F)(F)F)C(F)(F)F)c(Cl)c1Cl", "activity at 5 µM", "%", 21],
  ["CCN(CC)C(=O)c1nc(C(=O)NCC(C)(C)O)sc1-c1ccc(C(O)(C(F)(F)F)C(F)(F)F)c(Cl)c1Cl", "activity at 5 µM", "%", 76],
  ["CN(C(=O)c1nc(C(=O)NCC(C)(C)O)sc1-c1ccc(C(O)(C(F)(F)F)C(F)(F)F)c(Cl)c1Cl)C1CCC1", "activity at 5 µM", "%", 9.1],
  ["C[C@H]1C[C@@H](F)CCN1C(=O)c1nc(C(=O)NCC(C)(C)O)sc1-c1ccc(C(O)(C(F)(F)F)C(F)(F)F)c(Cl)c1Cl", "activity at 5 µM", "%", 40]
]}
